Sourced from patent US20200121803A1

# maps each entry to its % Cell Viability at 50 nM
# tgt: T1, human CD98, endogenously expressed on Molt-4 human acute lymphoblastic leukemia cells (human)
# T1 chain: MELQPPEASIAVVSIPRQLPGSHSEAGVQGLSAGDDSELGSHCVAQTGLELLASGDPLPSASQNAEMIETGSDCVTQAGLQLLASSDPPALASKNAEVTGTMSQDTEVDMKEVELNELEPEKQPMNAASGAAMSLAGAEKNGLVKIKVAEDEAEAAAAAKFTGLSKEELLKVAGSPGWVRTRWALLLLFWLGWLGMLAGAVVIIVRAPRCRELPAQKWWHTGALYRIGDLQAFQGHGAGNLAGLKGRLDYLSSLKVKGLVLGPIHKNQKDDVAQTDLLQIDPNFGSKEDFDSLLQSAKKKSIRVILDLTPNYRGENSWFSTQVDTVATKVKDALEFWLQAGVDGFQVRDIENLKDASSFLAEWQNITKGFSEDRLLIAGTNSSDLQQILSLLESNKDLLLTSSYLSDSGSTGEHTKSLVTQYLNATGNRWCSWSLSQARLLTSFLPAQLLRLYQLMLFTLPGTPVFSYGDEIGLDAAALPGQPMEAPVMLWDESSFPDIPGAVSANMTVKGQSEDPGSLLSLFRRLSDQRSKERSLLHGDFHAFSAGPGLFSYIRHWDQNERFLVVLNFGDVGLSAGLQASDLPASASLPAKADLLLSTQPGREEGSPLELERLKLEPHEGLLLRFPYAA
# assayMethodText: cell-based or functional assay
Field format: number, assumed %, no unit text.

binder	% Cell Viability at 50 nM / %
CD98 (CL-huAb104)-AAD (antibody, human IgG1, kappa, L234A L235A, V domains shown, synthon AAD on reduced interchain cysteines (sites not given)) VH: EVQLVESGGGLVQPGGSLRLSCATSGFTFIDYYMSWVRQAPGKGLEWLGFIRNKAYGYTTEYSASVKGRFTISRDNSKSILYLQMNSLKTEDTAVYYCTRDRPAWFVYWGQGTLVTVSS VL: DIVMTQTPLSLPVTPGEPASISCKSSQSLLYSSNQKNYLAWYLQKPGQSPQLLIYWASTRESGVPDRFSGSGSGTDFTLKISRVEAEDVGVYYCQQYYSYPYTFGGGTKVEIKR	2.5

Field: next binder
Identify the reported % Cell Viability at 50 nM for the following entry. CD98 (CL-huAb108)-TV (antibody, human IgG1, kappa, L234A L235A, V domains shown, synthon TV on reduced interchain cysteines (sites not given)) VH: EVQLVQSGAEVKKPGASVKVSCKASGFTFSDYTMAWVRQAPGQGLEWVATIIYSGRGTYYRDAVKGRFTITRDNSTSTLYLELSSLRSEDTAVYYCARQSDDTYYYWGYFDYWGQGTMVTVSS VL: DIVMTQTPLSLPVTPGEPASINCKSSQSLLFSGNQKNYLAWYLQKPGQSPQLLIYWASTRQSGVPDRFSGSGSGTDFTLKISRVEAEDVGIYYCQQYYDVPYTFGQGTKLEIKR
1.1
